# experimental details: In vivo pharmacokinetics in male SD rats (IV and PO)
# experimental conditions: male, SD, plasma; rat, PO, 3 mg/kg; read-out: AUC0-tlast
Entries annotated with measured AUC(0-t)
Could you give me the number in ng·h/mL? Just the number is fine.

{"compound": "[2H]C([2H])(c1c[nH]c2cccc(O)c12)[C@H]1CCCN1C([2H])([2H])[2H] [Compound I-44]", "assay value": 384}

// AUC(0-t) lookup, compound = [2H]C([2H])(c1c[nH]c2cccc(OC)c12)[C@H]1CCCN1C([2H])([2H])[2H] [Compound I-39] , result: 1.48

// AUC(0-t) lookup, compound = [2H]C([2H])([2H])N1CCC[C@@H]1Cc1c[nH]c2cccc(O)c12 [Compound I-2] , result: 409
